- Tested on: SW-620 colon
- assay remarks: NCI tumour cell line growth inhibition, 48 h
property measured: TGI (µM)

> print(dat)
                                    molecule  operator  assay.value
 1    O=C1Cc2c([nH]c3cc(Br)ccc23)-c2ccccc2N1         =         52.5
 2  N#CC1([N+](=O)[O-])C=C1c1ccccc1 (stereo not given)         =         41.6
 3  Cc1c(C(=O)Nc2ccc(Cl)cc2)nc(N)nc1-c1cccc(Cl)c1         >          100
 4  CC1(C)O[C@@H](CP(c2ccc3ccccc3c2)c2ccc3ccccc3c2)[C@H](CP(c2ccc3ccccc3c2)c2ccc3ccccc3c2)O1         >          100
 5  CC(=O)OC[C@]12CCC3[C@@]4(C)CCCC(C)(C)C4CC[C@@]3(C)C1CC(C1=CC(=O)OC1O)O2 (stereo not given in full)         =         1.85
 6  CC1=C(C(=O)NCc2ccccc2)C(c2ccccc2O)C(C(=O)NCc2ccccc2)=C(C)N1         =         32.3
 7                  NC(N)=N/N=C/c1ccc(Br)cc1         =         15.9
 8  COc1ccc(/C=C/C(=O)/C=C(/C=C/c2ccc(OC)c(OC)c2OC)OB(F)F)c(OC)c1OC         =         4.34
 9  CCOC(=O)C1C(=O)c2cccc(OC)c2C2COC(=O)N12 (stereo not given)         >          100
10  O=C(N/N=C/c1cccc(O)c1)c1ccc(C(F)(F)F)nc1Nc1cccc(C(F)(F)F)c1         =         5.77

* * *

Consider the following compounds and their measured TGI readings.
- Test system: LOX IMVI melanoma
- assay remarks: NCI tumour cell line growth inhibition, 48 h
Where a SMILES comes first, the peptide text is derived from it. [ ]: non-standard residue; d: D form. The star is where a group is joined. ξ: configuration not given here. dIva = CC[C@@](C)(N)C(=O)O; Aib = CC(C)(N)C(=O)O; ξP = O=C(O)C1CCCN1; βAla = NCCC(=O)O; X5 = OCN*
property measured: TGI (µM)

compound	operator	assay value
CC[C@@](C)(NC(=O)[C@H](C)NC(=O)CCNC(=O)C(C)(C)NC(=O)[C@H](C)NC(=O)[C@@H]1CCCN1C(=O)[C@@](C)(CC)NC(=O)[C@H](Cc1ccccc1)NC(=O)C1CCCN1C(=O)C(C)(C)NC(=O)C1CCCN1C(=O)C(C)(C)NC(C)=O)C(=O)NCCC(=O)N[C@@H](CC(C)C)C(=O)NC(C)(C)C(=O)NCCC(=O)N[C@@H](CC(C)C)C(=O)NC(C)(C)C(=O)NC(C)(C)C(=O)N[C@@H](CC(C)C)C(=O)NCCC(=O)NCO (some centres undefined) (Ac-[Aib][ξP][Aib][ξP]F[dIva]PA[Aib][βAla]A[dIva][βAla]L[Aib][βAla]L[Aib][Aib]L[βAla]-X5)	=	0.428
CC(=O)Nc1cc(CN2CCCCC2)c(O)c2ncccc12	=	84.8
O=C(NC(Cc1ccccc1)P(=O)(O)c1ccccc1)OCc1ccccc1 (centres undefined)	>	100
Cc1cc(C)nc(NS(=O)(=O)c2ccc(NC(=O)c3ccc4nc5ccccc5c(Nc5ccc(S(=O)(=O)Nc6nc(C)cc(C)n6)cc5)c4c3)cc2)n1	=	43.4
O=S1Cc2ccccc2CSS1 (centres undefined)	=	17.3
COc1ccc(/C=C/C(=O)/C=C(/C=C/c2ccc(OC)c(OC)c2OC)OB(F)F)c(OC)c1OC	=	2.4
Cc1ccc(C(=O)C(C)N)cc1C (centres undefined)	>	100
CCCCCCC(=O)CC(=O)C(=O)Nc1ccccc1C	>	59
